Reference for the values: paper PMC9482650

Target: T1, HTRA3, P83110
T1 sequence (P83110 354-453, limits assumed, looked up): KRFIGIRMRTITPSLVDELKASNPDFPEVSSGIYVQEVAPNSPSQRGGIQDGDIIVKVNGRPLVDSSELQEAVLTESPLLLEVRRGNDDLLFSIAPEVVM
Test: holdup assay
Design: key: below the threshold = too weak to quantify, mostly under pKd 3.1 to 4
Conditions: plain residues with an end cap or a label only (N-terminal biotin on a linker: ado-ado)

{"binder": "GTMFLRETSL [GUCY1A2, P33402]", "pKd": "below the threshold"}
{"binder": "HLSTRQGTCV [ATRNL1, Q5VV63]", "pKd": 4.45}
{"binder": "SSSVNVSSNL [CXCR1, P25024]", "pKd": "below the threshold"}
{"binder": "EFKQTSSFLV [JAM1, Q9Y624]", "pKd": 4.16}
{"binder": "PDSYHRRDFW [U2AF2, P26368]", "pKd": 4.01}
{"binder": "TKDKVQETQI [LRRC4, Q9HBW1]", "pKd": "below the threshold"}
{"binder": "DLLGGGSDSI [TNRC6B, Q9UPQ9]", "pKd": "below the threshold"}
{"binder": "ADEMICITTL [CACNA1D, Q01668]", "pKd": "below the threshold"}
{"binder": "KLQNPNQSVV [TYRP1, P17643]", "pKd": "below the threshold"}
{"binder": "FHSIKQSTAV [CRHR1, P34998]", "pKd": "below the threshold"}
{"binder": "IGHEDLETAV [DGKI, O75912]", "pKd": "below the threshold"}
{"binder": "SKQFDKNAYV [CLDN10, P78369]", "pKd": 4.06}
{"binder": "LPPPESESKV [KCNJ9, Q92806]", "pKd": "below the threshold"}
{"binder": "VISSDDLTEL [CAPN6, Q9Y6Q1]", "pKd": "below the threshold"}
{"binder": "MLPANYVEAI [NEB, P20929]", "pKd": "below the threshold"}
{"binder": "VYEVPVETKF [SLC26A3, P40879]", "pKd": "below the threshold"}
